Biological target: TNFα / TNFα receptor (TNFα R1/Fc) (Homo sapiens, UniProt P01375)
Construct: purchased R&D Systems
Sequence (P01375 77-233 limits assumed, species assumed): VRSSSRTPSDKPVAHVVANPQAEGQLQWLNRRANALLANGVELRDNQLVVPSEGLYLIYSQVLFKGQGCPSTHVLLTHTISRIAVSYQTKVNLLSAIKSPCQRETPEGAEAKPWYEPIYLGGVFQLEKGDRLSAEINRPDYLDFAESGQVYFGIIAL
Test: Inhibition of binding of TNFα to the TNFα receptor (plate ELISA competition)
Conditions: Table 2; read-out: Activity (IC50, inhibition of TNFα binding to TNFα R1/Fc)
Method: The compounds listed in Table 2 below were assayed for ability to inhibit binding of TNFα to the TNFα receptor (TNFα R1/Fc). The assays were performed as described in the following procedure: TNFα (R&D Systems) was coated on high binding plate wells (Corning 96-well) at a single uniform concentration of 15 nM, 100 μL/well in PBS. […] The TMB reaction was stopped with the addition of 0.5N HCl and then the plate was read for absorbance at 450 nm.
pIC50: −log10 of the molar value. Numbered stars: 1 amine (or outer) side, 2 acyl side, 3 side chain; on linkers, the order of the positions; unused ones are H or OH. Bridge positions count the residues as written; N and C are the ends. Square brackets hold non-standard residues; d marks the D form. Peptide text beside a SMILES is read from it. Bip = N[C@@H](Cc1ccc(-c2ccccc2)cc1)C(=O)O; Phe(4-NH2) = Nc1ccc(C[C@H](N)C(=O)O)cc1; d(hPhe) = N[C@H](CCc1ccccc1)C(=O)O; 3Pal = N[C@@H](Cc1cccnc1)C(=O)O; d2Thi = N[C@H](Cc1cccs1)C(=O)O; Suc = O=C(CCC(=O)[*:2])[*:1]; Nphe = O=C(O)CNCc1ccccc1
Measured Quantity: pIC50

INSERT INTO assay_data (compound, target_or_test_system, result) VALUES
  ('O=C1COc2ccc(cc2)C[C@@H](C(=O)O)NC(=O)[C@H](Cc2ccccc2)NC(=O)[C@@H](Cc2cccc(Cl)c2)NC(=O)[C@H](Cc2cccs2)N1', 'TNFα / TNFα receptor (TNFα R1/Fc) (Homo sapiens, UniProt P01375)', '< 4.00'),
  ('O=C(O)[C@@H]1Cc2ccc(cc2)NC(=O)[C@H](O)[C@@H](O)C(=O)N[C@H](Cc2ccccc2)C(=O)N[C@@H](Cc2ccc(-c3ccccc3)cc2)C(=O)N[C@H](CCc2ccccc2)C(=O)N1', 'TNFα / TNFα receptor (TNFα R1/Fc) (Homo sapiens, UniProt P01375)', '4.52 to 5.00'),
  ('O=C1CCC(=O)N[C@H](CCc2ccccc2)C(=O)NC(c2ccc(Br)cc2)C(=O)N[C@H](Cc2ccccc2)C(=O)N[C@H](C(=O)O)Cc2ccc(cc2)N1 (stereo partly shown)', 'TNFα / TNFα receptor (TNFα R1/Fc) (Homo sapiens, UniProt P01375)', '4.52 to 5.00'),
  ('CC(C)[C@H](NC(=O)[C@@H]1Cc2ccc(cc2)OCC(=O)N[C@@H](Cc2cccs2)C(=O)N[C@H](Cc2ccc(-c3ccccc3)cc2)C(=O)N[C@@H](CCc2ccccc2)C(=O)N1)C(=O)O', 'TNFα / TNFα receptor (TNFα R1/Fc) (Homo sapiens, UniProt P01375)', '4.52 to 5.00'),
  ('O=C(O)CN(Cc1ccccc1)C(=O)[C@@H]1Cc2ccc(cc2)NC(=O)CCC(=O)N[C@H](CCc2ccccc2)C(=O)N[C@@H](Cc2ccc(-c3ccccc3)cc2)C(=O)N[C@H](Cc2ccccc2)C(=O)N1 [Compound 504] ([d(hPhe)][Bip][dF][Phe(4-NH2)][Nphe]-OH; linker N-4 via Suc)', 'TNFα / TNFα receptor (TNFα R1/Fc) (Homo sapiens, UniProt P01375)', '> 5.00'),
  ('O=C1COc2ccc(cc2)C[C@@H](C(=O)N[C@@H](CCc2ccccc2)C(=O)O)NC(=O)[C@H](CCc2ccccc2)NC(=O)[C@@H](Cc2ccc(-c3ccccc3)cc2)NC(=O)[C@H](Cc2ccc(-c3ccncc3)cc2)N1', 'TNFα / TNFα receptor (TNFα R1/Fc) (Homo sapiens, UniProt P01375)', '> 5.00'),
  ('O=C1COc2ccc(cc2)C[C@@H](C(=O)O)NC(=O)[C@H](Cc2cccs2)NC(=O)[C@@H](Cc2ccc(-c3ccccc3)cc2)NC(=O)[C@H](Cc2ccncc2)N1', 'TNFα / TNFα receptor (TNFα R1/Fc) (Homo sapiens, UniProt P01375)', '> 5.00'),
  ('O=C(O)[C@@H]1Cc2ccc(cc2)NC(=O)[C@H](O)[C@@H](O)C(=O)N[C@@H](Cc2cccs2)C(=O)N[C@H](Cc2ccc(-c3ccccc3)cc2)C(=O)N[C@@H](Cc2ccccc2)C(=O)N1', 'TNFα / TNFα receptor (TNFα R1/Fc) (Homo sapiens, UniProt P01375)', '< 4.00'),
  ('O=C1CCC(=O)N[C@H](Cc2ccc(O)cc2)C(=O)N[C@@H](Cc2ccc(-c3ccccc3)cc2)C(=O)N[C@H](Cc2ccccc2)C(=O)N[C@H](C(=O)O)Cc2ccc(cc2)N1 [Compound 121] ([dY][Bip][dF][Phe(4-NH2)]-OH; linker N-4 via Suc)', 'TNFα / TNFα receptor (TNFα R1/Fc) (Homo sapiens, UniProt P01375)', '< 4.00'),
  ('O=C1CCC(=O)N[C@H](Cc2cccs2)C(=O)N[C@@H](Cc2ccc(-c3ccccc3)cc2)C(=O)N[C@@H](Cc2cccnc2)C(=O)N[C@H](C(=O)O)Cc2ccc(cc2)N1 [Compound 52] ([d2Thi][Bip][3Pal][Phe(4-NH2)]-OH; linker N-4 via Suc)', 'TNFα / TNFα receptor (TNFα R1/Fc) (Homo sapiens, UniProt P01375)', '< 4.00');
